Test system: Ugt2b5
Experiment: Induction of Ugt2b5 gene expression in wild type mouse liver at 50 mg/kg dosed through gavage daily for 4 days by qPCR method
Type: ADME, organism-based
Set-up: dose 50 mg/kg
Details: po, read-out: FC
Value Kind: fold induction at 96 h

{"columns": ["Compound Smiles", "Value Kind", "Obs Value"],
 "data": [
  ["CC(=O)[C@H]1[C@H](C#N)C[C@H]2[C@@H]3CC=C4C[C@@H](O)CC[C@]4(C)[C@H]3CC[C@@]21C", "fold induction at 96 h", 1.4]
]}

====

Target: PXR (Nuclear receptor subfamily 1 group I member 2) (Mus musculus, UniProt O54915)
Sequence (O54915 whole entry): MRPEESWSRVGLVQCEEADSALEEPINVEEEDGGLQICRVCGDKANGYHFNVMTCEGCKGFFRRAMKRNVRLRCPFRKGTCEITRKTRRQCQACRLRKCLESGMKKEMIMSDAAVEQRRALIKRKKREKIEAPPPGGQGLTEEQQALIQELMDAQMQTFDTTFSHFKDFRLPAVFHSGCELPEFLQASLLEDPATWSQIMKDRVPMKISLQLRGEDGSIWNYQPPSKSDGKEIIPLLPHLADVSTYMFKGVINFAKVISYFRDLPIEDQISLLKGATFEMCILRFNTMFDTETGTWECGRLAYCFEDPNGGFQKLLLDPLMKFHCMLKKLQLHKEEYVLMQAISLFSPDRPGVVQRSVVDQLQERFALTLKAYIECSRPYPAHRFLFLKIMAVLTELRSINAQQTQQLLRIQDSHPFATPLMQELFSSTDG
Assay: Activation of mouse PXR expressed in human HepG2 cells at 10 uM after 24 hrs by firefly luciferase DR3 reporter gene assay
Type: ADME, cell-based
Settings: human HepG2 cells expressing mouse PXR, read-out: FC
Value Kind: fold induction at 24 h, 10 µM

{"columns": ["Compound Smiles", "System Tested", "Value Kind", "Obs Value"],
 "data": [
  ["CC(=O)[C@H]1[C@H](C#N)C[C@H]2[C@@H]3CC=C4C[C@@H](O)CC[C@]4(C)[C@H]3CC[C@@]21C", "PXR (Nuclear receptor subfamily 1 group I member 2) (Mus musculus, UniProt O54915)", "fold induction at 24 h, 10 µM", 9.5]
]}

Data origin: ChEMBL document CHEMBL3526106
